Tested on: HARA (human lung squamous cell carcinoma) cells
Experiment: Cell proliferation assay (CellTiter-Glo), HARA
Format: cell-based
Settings: Homo sapiens, 144 h; 6 days, CellTiter-Glo; read-out: HARA GI50
Measured GI50, listed per entry for reference.

Some entries whose results are on file:
{"compound": "N#Cc1ccc(N2CCN(C(=O)c3cc(Br)cc(Cc4n[nH]c(=O)c5ccc(OC6CCC6)cc45)c3)CC2)nc1 [Example 178]", "result": "1 to 5 µM"}
{"compound": "N#Cc1ccc(N2CCN(c3noc4c(Cc5n[nH]c(=O)c6ccc(OC7CCC7)cc56)cccc34)CC2)nc1 [Example 208]", "result": "1 to 5 µM"}

Recorded GI50 for N#Cc1ccc(N2CCN(c3noc4ccc(Cc5n[nH]c(=O)c6ccc(OC7CCC7)cc56)cc34)CC2)nc1 [Example 211] on HARA (human lung squamous cell carcinoma) cells was 1 to 5 µM

Response field GI50 (HARA (human lung squamous cell carcinoma) cells) for item CC#Cc1cc(C(F)(F)F)c2c(=O)[nH]nc(Cc3ccc(F)c(C(=O)N4CCN(c5ccc(C#N)cn5)CC4)c3)c2c1 [Example 84] : 1 to 5 µM

Value (GI50, HARA (human lung squamous cell carcinoma) cells) for record N#Cc1ccc(N2CCN(C(=O)c3cc(Cc4n[nH]c(=O)c5ccc(OC6CCC6)cc45)ccc3F)[C@@H]3C[C@@H]32)nc1 (stereo in doubt) [Example 150] = 1 to 5 µM

Tested on HARA (human lung squamous cell carcinoma) cells, the item N#Cc1ccc(N2CCN(C(=O)c3cc(Cc4n[nH]c(=O)c5ccc(OC6CC(F)(F)C6)cc45)ccc3F)CC2)nc1 [Example 51] showed GI50 equal to > 5 µM
